assay-explanation: Solubility Evaluation 1: anthracene compounds in various solvents, visual check
Format: physicochemical
Design: key: A: it was confirmed that the compounds were dissolved in the dropped solvents; C: the compounds were not completely dissolved and undissolved residues remained
condition-description: 30 mg compound, 1 g solvent, visual check
Protocol: 30 mg of each of anthracene compounds 1 to 14 represented by the following formulae was put into a sample bottle, and 1 g of each of various solvents was dropped into the bottle with agitation. By visual check, a case where it was confirmed that the compounds were dissolved in the dropped solvents is marked as A and a case where the compounds were not completely dissolved and undissolved residues remained is marked as C.
assay-metric: Solubility in Methylethylketone

Worked examples follow.
- line-notation: "c1ccc(-c2ccc(-c3c4ccccc4c(-c4ccc(-c5ccccc5)cc4)c4ccccc34)cc2)cc1"
  Solubility in Methylethylketone: "C"
- line-notation: "c1ccc(-c2c3ccccc3c(-c3cccc(-c4cccc(-c5c6ccccc6c(-c6ccccc6)c6ccccc56)c4)c3)c3ccccc23)cc1"
  Solubility in Methylethylketone: "C"
- line-notation: "c1ccc(-c2ccc3ccc(-c4c5ccccc5c(-c5cccc(-c6ccc7ccccc7c6)c5)c5ccccc45)cc3c2)cc1"
  Solubility in Methylethylketone: "C"
- line-notation: "c1ccc2cc(-c3c4ccccc4c(-c4ccc(-c5cccc6ccccc56)cc4)c4ccccc34)ccc2c1"
  Solubility in Methylethylketone: "C"
- line-notation: "c1cc(-c2ccc3ccccc3c2)cc(-c2c3ccccc3c(-c3cccc4ccccc34)c3ccccc23)c1"
  Solubility in Methylethylketone: "C"
- line-notation: "c1cc(-c2ccc3ccccc3c2)cc(-c2c3ccccc3c(-c3ccc4ccccc4c3)c3ccccc23)c1"
  Solubility in Methylethylketone: "C"

Dear colleague, could you send me Solubility in Methylethylketone for each of the items below? Thanks.
1. c1ccc(-c2cc(-c3ccc4ccccc4c3)cc(-c3c4ccccc4c(-c4ccc5ccccc5c4)c4ccccc34)c2)cc1
2. c1ccc2cc(-c3c4ccccc4c(-c4ccc5ccccc5c4)c4ccccc34)ccc2c1

Result:
C
C

---

assay-explanation: Solubility Evaluation 1: anthracene compounds in various solvents, visual check
Assay type: physicochemical
Design: key: A: it was confirmed that the compounds were dissolved in the dropped solvents; C: the compounds were not completely dissolved and undissolved residues remained
condition-description: 30 mg compound, 1 g solvent, visual check
assay-metric: Solubility in Dioxane

Here's what some known entries look like.
- line-notation: "c1ccc(-c2ccc(-c3c4ccccc4c(-c4ccc(-c5ccccc5)cc4)c4ccccc34)cc2)cc1"
  assay-metric: "Solubility in Dioxane"
  endpoint-value: "C"
- line-notation: "c1cc(-c2ccc3ccccc3c2)cc(-c2c3ccccc3c(-c3ccc4cc(-c5ccc6ccccc6c5)ccc4c3)c3ccccc23)c1"
  assay-metric: "Solubility in Dioxane"
  endpoint-value: "C"
- line-notation: "c1ccc2cc(-c3ccc(-c4ccc(-c5c6ccccc6c(-c6ccc7ccccc7c6)c6ccccc56)cc4)c4ccccc34)ccc2c1"
  assay-metric: "Solubility in Dioxane"
  endpoint-value: "C"
- line-notation: "c1ccc(-c2cc(-c3ccc4ccccc4c3)cc(-c3c4ccccc4c(-c4ccc5ccccc5c4)c4ccccc34)c2)cc1"
  assay-metric: "Solubility in Dioxane"
  endpoint-value: "A"
- line-notation: "c1ccc2cc(-c3ccc(-c4c5ccccc5c(-c5ccc(-c6cccc7ccccc67)cc5)c5ccccc45)cc3)ccc2c1"
  assay-metric: "Solubility in Dioxane"
  endpoint-value: "A"
- line-notation: "c1ccc(-c2ccc(-c3ccccc3-c3c4ccccc4c(-c4c5ccccc5c(-c5ccccc5-c5ccc(-c6ccccc6)cc5)c5ccccc45)c4ccccc34)cc2)cc1"
  assay-metric: "Solubility in Dioxane"
  endpoint-value: "A"
- line-notation: "c1ccc(-c2ccc3cc(-c4cccc(-c5c6ccccc6c(-c6ccc7ccccc7c6)c6ccccc56)c4)ccc3c2)cc1"
  assay-metric: "Solubility in Dioxane"
  endpoint-value: "C"
- line-notation: "c1ccc2cc(-c3c4ccccc4c(-c4ccc(-c5cccc6ccccc56)cc4)c4ccccc34)ccc2c1"
  assay-metric: "Solubility in Dioxane"
  endpoint-value: "A"
- line-notation: "c1ccc2cc(-c3c4ccccc4c(-c4ccc5ccccc5c4)c4ccccc34)ccc2c1"
  assay-metric: "Solubility in Dioxane"
  endpoint-value: "C"
- line-notation: "c1cc(-c2ccc3ccccc3c2)cc(-c2c3ccccc3c(-c3ccc4ccccc4c3)c3ccccc23)c1"
  assay-metric: "Solubility in Dioxane"
  endpoint-value: "C"

Then there is this compound:
Task: Name the recorded Solubility in Dioxane of the compound listed here: c1ccc(-c2ccc3ccc(-c4c5ccccc5c(-c5cccc(-c6ccc7ccccc7c6)c5)c5ccccc45)cc3c2)cc1
Result: C
